# TARGET_OR_TEST_SYSTEM: T1, DR5-IgG (human, UniProt O14763 56-184)
# T1 construct: also called Apo-2-IgG; not shown: IgG part; prepared as in WO98/51793, not described here
# T1 sequence (O14763 56-184): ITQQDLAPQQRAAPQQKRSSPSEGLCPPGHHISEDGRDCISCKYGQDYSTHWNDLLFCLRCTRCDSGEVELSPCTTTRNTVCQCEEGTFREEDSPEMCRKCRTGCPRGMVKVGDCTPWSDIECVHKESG
# ASSAY_EXPLANATION: BIAcore; against Flag.Apo2L.WT
I'd appreciate it if you could supply DR5 KD (mut/wt) values for the items below.
Give bare numbers, in ratio.

INSERT INTO results (binder, value_type, units, obs_value) VALUES
  ('Flag.Apo2L.DR5-2 (ligand, not shown: N-terminal flag tag from pFLAG-MAC) VRERGPQRVAAHITGTRGRSNTLSSPNSKNEKALGRKINSWESSRSGHSFLSNLHLRNGELVIHEKGFYYIYSQTAFKFKEEIKENTKNDKQMVQYIYKYTSYPDPILLMKSARNSCWSKDAEYGLYSIYQGGIFELKENDRIFVSVTNEHLIDMDHEASFFGAFLVG', 'DR5 KD (mut/wt)', 'ratio', 1.9);

Q: Report DR5 KD (mut/wt) for Flag.Apo2L.DR5-21 (ligand, not shown: N-terminal flag tag from pFLAG-MAC) VRERGPQRVAAHITGTRGRSNTLSSPNSKNEKALGRKINSWESSRSGHSFLSNLHLRNGELVIHEKGFYYIYSQTAFKFKEEIKENTKNDKQMVQYIYKYTSYPDPILLMKSARNSCWSKDAEYGLYSIYQGGIFELKENDRIFVSVTNEDLLNMEHEASFFGAFLVG please.
Ans: 1
